target: HLA-B*46:01; assay: IEDB peptide-MHC binding, purified MHC/direct/fluorescence; filed as Kd, often an IC50 or EC50 that approximates it; bounds were set here for any values at or beyond the usual limits of such assays; settings: source organism: Burkholderia mallei ATCC 23344
pKd: −log10 of the molar value.
readout-kind: pKd

| sequence-input | recorded-result |
| --- | --- |
| NVMDPMHGA | ≤ 4.70 |

###

target: HLA-B*14:02; experiment: IEDB peptide-MHC binding, purified MHC/competitive/fluorescence; filed as Kd, often an IC50 or EC50 that approximates it; bounds were set here for any values at or beyond the usual limits of such assays; settings: source organism: Burkholderia mallei SAVP1
readout-kind: Kd

| sequence-input | recorded-result |
| --- | --- |
| NVMDPMHGA | ≥ 5 µM |

###

target: HLA-B*44:02; test: IEDB peptide-MHC binding, purified MHC/direct/fluorescence; filed as Kd, often an IC50 or EC50 that approximates it; bounds were set here for any values at or beyond the usual limits of such assays; settings: source organism: Shigella flexneri
pKd: −log10 of the molar value.
readout-kind: pKd

| sequence-input | target-entity | recorded-result |
| --- | --- | --- |
| VVISKKDTY | HLA-B*44:02 | ≤ 4.70 |

###

biological target: HLA-B*44:03; test: IEDB peptide-MHC binding, purified MHC/competitive/radioactivity; filed as Kd, often an IC50 or EC50 that approximates it; bounds were set here for any values at or beyond the usual limits of such assays; conditions: source organism: Mammarenavirus tacaribeense

| sequence-input | Kd |
| --- | --- |
| AEFKSRFFVM | 87.2 nM |

###

target: HLA-A*02:11; test: IEDB peptide-MHC binding, purified MHC/direct/fluorescence; filed as Kd, often an IC50 or EC50 that approximates it; bounds were set here for any values at or beyond the usual limits of such assays; details: source organism: Limestone Canyon virus
pKd: −log10 of the molar value.
readout-kind: pKd

| sequence-input | readout-kind | recorded-result |
| --- | --- | --- |
| YRTLGVFRY | pKd | ≤ 4.70 |

###

target: HLA-B*15:01; test: IEDB peptide-MHC binding, purified MHC/direct/fluorescence; filed as Kd, often an IC50 or EC50 that approximates it; bounds were set here for any values at or beyond the usual limits of such assays; details: source organism: Klebsiella pneumoniae
pKd: −log10 of the molar value.
readout-kind: pKd

| sequence-input | recorded-result |
| --- | --- |
| LLQEKYGLI | ≤ 4.70 |

###

target: HLA-B*57:01; test: IEDB peptide-MHC binding, purified MHC/direct/fluorescence; filed as Kd, often an IC50 or EC50 that approximates it; bounds were set here for any values at or beyond the usual limits of such assays; settings: source organism: Mammarenavirus lassaense
pKd: −log10 of the molar value.
readout-kind: pKd

| sequence-input | target-entity | readout-kind | recorded-result |
| --- | --- | --- | --- |
| DIKLIDIAL | HLA-B*57:01 | pKd | ≤ 4.70 |

###

target: HLA-B*18:01; experiment: IEDB peptide-MHC binding, purified MHC/direct/fluorescence; filed as Kd, often an IC50 or EC50 that approximates it; bounds were set here for any values at or beyond the usual limits of such assays; details: source organism: Vibrio vulnificus YJ016
readout-kind: Kd

| sequence-input | target-entity | recorded-result |
| --- | --- | --- |
| WHQARFEEL | HLA-B*18:01 | ≥ 20 µM |

###

target: HLA-B*48:01; assay: IEDB peptide-MHC binding, purified MHC/direct/fluorescence; filed as Kd, often an IC50 or EC50 that approximates it; bounds were set here for any values at or beyond the usual limits of such assays; settings: source organism: Salmonella enterica
pKd: −log10 of the molar value.

| sequence-input | target-entity | pKd |
| --- | --- | --- |
| MGKTITDVK | HLA-B*48:01 | ≤ 4.70 |

###

molecular target: HLA-B*51:01; assay: IEDB peptide-MHC binding, purified MHC/competitive/radioactivity; filed as Kd, often an IC50 or EC50 that approximates it; bounds were set here for any values at or beyond the usual limits of such assays; details: source organism: Dengue virus 3 Martinique/1243/1999
readout-kind: Kd

| sequence-input | recorded-result |
| --- | --- |
| LALFLAHYI | 0.342 µM |
| YAQMWSLMYF | 12.9 µM |

###

target: HLA-A*02:17; experiment: IEDB peptide-MHC binding, purified MHC/competitive/radioactivity; filed as Kd, often an IC50 or EC50 that approximates it; bounds were set here for any values at or beyond the usual limits of such assays; conditions: source organism: Dengue virus 1 Singapore/S275/1990
pKd: −log10 of the molar value.

| sequence-input | pKd |
| --- | --- |
| LLENDMKFTV | 6.94 |
| TMLLMLLPTA | 6.18 |

###

molecular target: HLA-A*11:01; test: IEDB peptide-MHC binding, purified MHC/direct/fluorescence; filed as Kd, often an IC50 or EC50 that approximates it; bounds were set here for any values at or beyond the usual limits of such assays; settings: source organism: Amur virus
pKd: −log10 of the molar value.
readout-kind: pKd

| sequence-input | readout-kind | recorded-result |
| --- | --- | --- |
| VLFMVAWGK | pKd | 7.12 |

###

molecular target: HLA-A*29:02; assay: IEDB peptide-MHC binding, purified MHC/competitive/fluorescence; filed as Kd, often an IC50 or EC50 that approximates it; bounds were set here for any values at or beyond the usual limits of such assays; conditions: source organism: Bacillus anthracis str. Ames
readout-kind: Kd

| sequence-input | readout-kind | recorded-result |
| --- | --- | --- |
| VILYFMYRK | Kd | ≥ 20 µM |

###

biological target: HLA-B*27:03; assay: IEDB peptide-MHC binding, purified MHC/competitive/fluorescence; filed as Kd, often an IC50 or EC50 that approximates it; bounds were set here for any values at or beyond the usual limits of such assays; details: source organism: Orthohantavirus andesense

| sequence-input | target-entity | Kd |
| --- | --- | --- |
| TRDHVNLVL | HLA-B*27:03 | ≥ 20 µM |

###

target: HLA-A*68:01; experiment: IEDB peptide-MHC binding, purified MHC/competitive/radioactivity; filed as Kd, often an IC50 or EC50 that approximates it; bounds were set here for any values at or beyond the usual limits of such assays; details: source organism: Triticum aestivum

| sequence-input | Kd |
| --- | --- |
| KSQVLQQSTY | ≥ 70.2 µM |

###

molecular target: HLA-C*06:02; assay: IEDB peptide-MHC binding, purified MHC/direct/fluorescence; filed as Kd, often an IC50 or EC50 that approximates it; bounds were set here for any values at or beyond the usual limits of such assays; settings: source organism: Escherichia coli HS

| sequence-input | Kd |
| --- | --- |
| MMWATAQAL | ≥ 20 µM |

###

biological target: HLA-B*51:01; experiment: IEDB peptide-MHC binding, purified MHC/direct/fluorescence; filed as Kd, often an IC50 or EC50 that approximates it; bounds were set here for any values at or beyond the usual limits of such assays; settings: source organism: Yersinia enterocolitica subsp. enterocolitica 8081
readout-kind: Kd

| sequence-input | recorded-result |
| --- | --- |
| ETIFTVLAL | ≥ 20 µM |

###

target: HLA-A*01:01; experiment: IEDB peptide-MHC binding, purified MHC/competitive/fluorescence; filed as Kd, often an IC50 or EC50 that approximates it; bounds were set here for any values at or beyond the usual limits of such assays; conditions: source organism: Entamoeba histolytica HM-1:IMSS

| sequence-input | Kd |
| --- | --- |
| IESNPLFPV | ≥ 5 µM |

###

target: HLA-B*15:01; assay: IEDB peptide-MHC binding, purified MHC/direct/fluorescence; filed as Kd, often an IC50 or EC50 that approximates it; bounds were set here for any values at or beyond the usual limits of such assays; details: source organism: Vibrio vulnificus YJ016

| sequence-input | target-entity | Kd |
| --- | --- | --- |
| GWPDNYCEW | HLA-B*15:01 | ≥ 20 µM |
| WHQARFEEL | HLA-B*15:01 | ≥ 20 µM |

###

molecular target: HLA-B*58:01; experiment: IEDB peptide-MHC binding, purified MHC/direct/fluorescence; filed as Kd, often an IC50 or EC50 that approximates it; bounds were set here for any values at or beyond the usual limits of such assays; details: source organism: Orthohantavirus andesense
readout-kind: Kd

| sequence-input | recorded-result |
| --- | --- |
| TRDHVNLVL | ≥ 20 µM |

###

# Kd per entry
target: HLA-B*46:01; assay: IEDB peptide-MHC binding, purified MHC/direct/fluorescence; filed as Kd, often an IC50 or EC50 that approximates it; bounds were set here for any values at or beyond the usual limits of such assays; settings: source organism: Vibrio cholerae

| sequence-input | Kd |
| --- | --- |
| AADFPGIAR | ≥ 20 µM |
| KGHLPLLDK | ≥ 20 µM |

Values were extracted from the Immune Epitope Database (IEDB).
